# target-or-system: human tyrosinase (hTyr) (Homo sapiens, UniProt P14679)
# Sequence (P14679 19-476 limits assumed): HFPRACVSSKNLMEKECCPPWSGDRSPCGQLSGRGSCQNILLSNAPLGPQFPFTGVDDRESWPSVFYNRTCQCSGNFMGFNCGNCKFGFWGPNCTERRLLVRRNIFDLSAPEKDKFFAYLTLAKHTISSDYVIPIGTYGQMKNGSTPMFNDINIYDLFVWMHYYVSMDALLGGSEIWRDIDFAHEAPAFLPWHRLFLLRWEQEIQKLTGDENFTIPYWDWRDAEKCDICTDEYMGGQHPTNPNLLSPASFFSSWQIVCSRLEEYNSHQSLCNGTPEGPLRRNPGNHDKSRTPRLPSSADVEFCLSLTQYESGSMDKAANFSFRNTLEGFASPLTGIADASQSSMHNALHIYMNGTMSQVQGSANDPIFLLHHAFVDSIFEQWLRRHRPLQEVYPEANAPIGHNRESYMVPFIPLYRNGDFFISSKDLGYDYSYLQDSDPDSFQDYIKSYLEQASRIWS
# assay-overview: L-Dopa oxidase activity of hTyr, dose-response profiles (MBTH assay)
# cond: dopa oxidase activity of hTyr, 1 mM L-Dopa, phosphate buffer pH 7.0, 37 °C; values above 3 mM given as >3000
We label by threshold. Values of EC50 strictly beneath 6 µM are 1. Values of 6 µM and up are 0.

Threshold test, EC50 < 6 µM: Oc1ccccc1-c1csc(Nc2ncccn2)n1 [W539]
0

Threshold test, EC50 < 6 µM: O=C(NC1CCCCC1)c1csc(-c2ccc(O)cc2O)n1 [W701]
0

Threshold test, EC50 < 6 µM: CCCC(=O)Nc1nc(-c2cc(CCC)c(O)cc2O)cs1 [W681]
0

Threshold test, EC50 < 6 µM: CCCNc1nc(-c2cc(O)cc(O)c2)cs1 [W624]
0

Threshold test, EC50 < 6 µM: Oc1ccc(-c2csc(Nc3ncccn3)n2)cc1 [W452]
0

Threshold test, EC50 < 6 µM: CC(C)Nc1nc(-c2ccc(O)cc2O)cs1 [W533]
0

Threshold test, EC50 < 6 µM: CCCNc1nc(-c2ccc(O)cc2O)cs1 [W538]
1

Threshold test, EC50 < 6 µM: O=C(Nc1nc(-c2ccc(O)cc2O)cs1)c1ccccc1 [W498]
1

Threshold test, EC50 < 6 µM: OCc1ccc(Nc2nc(-c3ccc(O)cc3O)cs2)cc1 [W693]
1
